Measured Post-emergence action against ORYSA in % values are reported for all entries that follow.
# Test system: Oryza sativa (ORYSA)
# Type: in vivo
# test.conditions: crop plant compatibility, 20 g/ha, effect vs untreated controls
Dear colleague, please return just the value in %, with no unit written.

CC(C)=NOC(=O)COc1nn(-c2ncccc2F)c(-c2ccc(F)nc2)c1Br	10

Query "O=C(O)COc1nn(-c2ccccn2)c(-c2ccnc(F)c2)c1Br" on Oryza sativa (ORYSA); Post-emergence action against ORYSA in % returned: 0

Query "O=C(COc1nn(-c2ncccc2F)c(-c2ccc(F)nc2)c1Br)OCc1ccccn1" on Oryza sativa (ORYSA); Post-emergence action against ORYSA in % returned: 10

Query "CCOC(=O)CSc1nn(-c2ccccn2)c(-c2cncc(F)c2)c1Br" on Oryza sativa (ORYSA); Post-emergence action against ORYSA in % returned: 0

Query COC(=O)C1CCCN1C(=O)COc1nn(-c2ccccn2)c(-c2ccc(F)nc2)c1Br (centres unmarked) on Oryza sativa (ORYSA); Post-emergence action against ORYSA in % returned: 0

Query "CCOC(=O)[C@@H](C)Oc1nn(-c2ncccc2F)c(-c2ccc(F)nc2)c1Br" on Oryza sativa (ORYSA); Post-emergence action against ORYSA in % returned: 0

Query "O=C(O)COc1nn(-c2ccccn2)c(-c2ccc(F)nc2)c1I" on Oryza sativa (ORYSA); Post-emergence action against ORYSA in % returned: 0

Query "O=C(COc1nn(-c2ncccc2F)c(-c2ccc(F)nc2)c1C1CC1)OCC1CCCC1" on Oryza sativa (ORYSA); Post-emergence action against ORYSA in % returned: 10

Reference for the values: patent US20240041042A1
